Test system: T-47D breast
experiment notes: NCI-60 one-dose screen, 48 h (100 = growth as untreated, 0 = no growth, -100 = all killed)
condition parameters: 10 µM unless noted
Experimental: Growth inhibition of the T-47D human tumor cell line is measured as a screen for anti-cancer activity. Cells are grown in 96 well plates and exposed to the test compound for 48 hours. Compounds are tested at a single concentration, which is 10^-5 M for most compounds. The reported endpoint is percent growth (GI% or GIPRCNT), where numbers from 0 - 100% represent growth inhibition, and numbers from -100% - 0 represent cell death. For example, a value of 40 represents 60% growth inhibition. […]
This is part of a sample that, as a whole, favours compounds with a hit. Of some 83,000 tested, about 20% had one in any assay.
property label: growth (%)
One number for each entry, in %.

Below, 3 molecules whose answers are already recorded.
Q: Notebook entry, T-47D breast assay: growth of COc1ccc(C(O)c2cc3c(N)c(C(=O)Nc4cccc(Br)c4)sc3nc2C)cc1 (configuration not stated) = ?
A: 53.2

Q: Another: COc1cc(-c2nc3sccn3c2-c2ccnc(NCCNS(=O)(=O)c3ccccc3)n2)ccc1F
A: 14.3

Q: And the next one, CNC(=O)c1[nH]cc(-c2ccc(OC)cc2)c1-c1cc(OC)c2c(c1OC)OCO2 ?
A: 92.3

Items follow; give growth for each.
1. C[PH+](c1nc2ccccc2nc1[PH+](C)C(C)(C)C)C(C)(C)C.C[PH+](c1nc2ccccc2nc1[PH+](C)C(C)(C)C)C(C)(C)C.[Au+].[Cl-] (configuration not stated)
2. CCOC(=O)c1c2c(n3cccc(F)c13)C(=O)c1ncccc1C2=O
3. CC(C)c1ccc(C(=O)Nc2nc3ccc(O)c(CN(C)C)c3s2)cc1
4. c1csc(-c2ccc(CNc3c4ccccc4nc4ccccc34)cc2)c1
5. COc1ccc(/C=C/C(=O)c2cc3c(N)c(C(=O)Nc4cccc5ccccc45)sc3nc2C)cc1
6. Nc1n[nH]c2cccc(C#Cc3cccc(C(=O)Nc4cc(C(F)(F)F)cc(C(F)(F)F)c4)c3)c12
7. Cn1ccnc1C(=O)/C=C/c1ccc(C(=O)Nc2ccccc2O)cc1
8. CC1=C2[C@@H](CC1)[C@]1(C)O[C@@](C(C)C)(C[C@H]1OC(=O)[C@H](C)O)[C@H]2OC(=O)/C=C/c1ccccc1

A:
1: -79.9; 2: 54.5; 3: 77.8; 4: 71.9; 5: 66.4; 6: 73.9; 7: 2.47; 8: 57.6

Q: Identify the measured growth of CCOC(=O)C1=C(c2ccccc2)N=C2SC=C(c3ccc(Cl)cc3)N2C1c1ccc(Cl)cc1 (configuration not stated) for T-47D breast.
A: 52.4
